Tested on: A549 NSCLC
Test: NCI tumour cell line growth inhibition, 48 h; in the data active = GI50 below about 0.43 µM; inactive = the rest
Classes to choose from: y for active, n for inactive

For orientation, consider the following solved cases.
CC[C@@H](C(=O)[C@@H](C)[C@@H](O)[C@H](C)[C@@H]1O[C@@H]([C@@H](CC)C(=O)O)CC[C@@H]1C)[C@H]1O[C@]2(C=C[C@@H](O)[C@]3(CC[C@@](C)([C@H]4CC[C@](O)(CC)[C@H](C)O4)O3)O2)[C@H](C)C[C@@H]1C = y
COc1cc2c(=O)n(CC3CCCCC3)c3c4cc[nH]c4ncc3c2cc1OC = n

Prompt line: Status in this test for CNc1nc(-c2ccc3c(N)n[nH]c3c2)cc(N2C[C@@H](C(=O)NC3CCCCC3)CC[C@H]2C)n1 ?
Response line: n

Data origin, for the record: PubChem BioAssay (NCI)
